# testedTarget: Human Jak2 kinase domain (Homo sapiens (Human))
# Sequence (O60674 808-1132): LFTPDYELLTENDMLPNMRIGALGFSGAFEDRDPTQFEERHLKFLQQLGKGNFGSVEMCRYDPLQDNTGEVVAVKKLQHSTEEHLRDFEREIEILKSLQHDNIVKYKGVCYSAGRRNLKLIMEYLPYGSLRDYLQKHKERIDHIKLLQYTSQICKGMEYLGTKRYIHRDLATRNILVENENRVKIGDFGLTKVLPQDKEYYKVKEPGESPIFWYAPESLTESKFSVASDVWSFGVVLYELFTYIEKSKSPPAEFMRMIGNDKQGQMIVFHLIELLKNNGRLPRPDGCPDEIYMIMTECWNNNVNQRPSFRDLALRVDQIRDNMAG
# assayExplanation: Jak2 Inhibition Assay (Omnia kinase assay)
# Type: biochemical
# testParameters: read-out: Jak2 Enzyme IC50
# Description: The assays described in Examples C, D, E and F for the determination of JAK1, JAK2, JAK3 and Tyk2 kinase activity, respectively, utilized the Omnia® Kinase fluorescence peptide substrate-based technology (Invitrogen). […] The reactions were therefore read at excitation 360 nm and emission was measured at 485 nm every 50 seconds for 45 minutes using a PerkinElmer EnVision Multilabel Plate Reader. […]
pIC50: −log10 of the molar value.
readoutLabel: pIC50

Reference set, count: 3
cpdSmiles: COc1ncc(F)cc1[C@H]1CCCN1c1ccn2ncc(C(N)=O)c2n1
readoutLabel: pIC50
readoutValue: < 6.00
//
cpdSmiles: CC(C)(C#N)NC(=O)c1cnn2ccc(N3CCC[C@@H]3c3cc(F)ccc3F)nc12
readoutLabel: pIC50
readoutValue: < 6.00
//
cpdSmiles: NS(=O)(=O)CCNC(=O)c1cnn2ccc(N3CCC[C@@H]3c3cc(F)ccc3F)nc12
readoutLabel: pIC50
readoutValue: < 6.00

Switching to the query record.
Record O=C(O)CC1CCN(C(=O)c2cnn3ccc(N4CCC[C@@H]4c4cc(F)ccc4F)nc23)CC1 . Reported pIC50: < 6.00

---

Parameter pIC50: see the listing below.
# testedTarget: TrkA (histidine-tagged recombinant human TrkA, cytoplasmic domain) (Homo sapiens (Human), UniProt P04629)
# Sequence (P04629 440-796): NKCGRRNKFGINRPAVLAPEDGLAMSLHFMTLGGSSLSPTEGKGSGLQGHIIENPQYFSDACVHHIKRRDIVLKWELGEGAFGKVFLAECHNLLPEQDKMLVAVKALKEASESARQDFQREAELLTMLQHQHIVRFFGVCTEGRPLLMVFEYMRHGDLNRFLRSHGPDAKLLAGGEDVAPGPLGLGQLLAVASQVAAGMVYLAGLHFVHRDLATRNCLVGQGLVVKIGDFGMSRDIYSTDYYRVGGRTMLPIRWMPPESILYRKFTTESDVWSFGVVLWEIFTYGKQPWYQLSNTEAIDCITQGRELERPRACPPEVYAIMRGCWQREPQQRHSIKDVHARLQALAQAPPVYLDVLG
# assayExplanation: TrkA ELISA Assay
# Assay type: biochemical
# testParameters: Table 1; ELISA, 500 μM ATP; read-out: TrkA Enzyme IC50
# Protocol: An enzyme-linked immunosorbant assay (ELISA) was used to assess TrkA kinase activity in the presence of inhibitors. […] The phosphorylated reaction product was detected using 0.2 μg/mL of a phosphotyrosine specific monoclonal antibody (clone PY20) conjugated to horseradish peroxidase in conjunction with the TMB Peroxidase Substrate System (KPL). After the addition of 1M phosphoric acid, the chromogenic substrate color intensity was quantitated via absorbance at 450 nm.
When answering, recall that pIC50 equals minus log10 of the concentration in mol/L, and write that number alone.

cpdSmiles: O=C(NC1CC1)c1cnn2ccc(N3CCC[C@@H]3c3cc(F)cc(OCCN4CCOCC4)c3)nc12
readoutValue: 8.03
//
cpdSmiles: O=C(NC1(C(F)(F)F)CC1)c1cnn2ccc(N3CCC[C@@H]3c3cncc(F)c3)nc12
readoutValue: 8.05
//
cpdSmiles: O=C(N[C@@H]1CCC[C@H]1O)c1cnn2ccc(N3CCC[C@@H]3c3cncc(F)c3)nc12
readoutValue: 7.80
//
cpdSmiles: O=C(NCC(F)F)c1cnn2ccc(N3CCC[C@@H]3c3cncc(F)c3)nc12
readoutValue: 8.13
//
cpdSmiles: Cn1cc(F)cc([C@H]2CCCN2c2ccn3ncc(C(=O)N[C@@H]4CCCC[C@H]4O)c3n2)c1=O
readoutValue: 7.97

Switching to the query record.
Record CC1(C)CC[C@H](c2cc(F)ccc2F)N1c1ccn2ncc(C(=O)NC3CC3)c2n1 . Reported pIC50: 8.18

Reference source: patent US8791123B2
